Listed next: entries and their corresponding pIC50.
Biological target: PI3 Kinase (p120γ) (h) (Homo sapiens, UniProt P48736)
Construct: endogenous in cells
Sequence (P48736 whole entry): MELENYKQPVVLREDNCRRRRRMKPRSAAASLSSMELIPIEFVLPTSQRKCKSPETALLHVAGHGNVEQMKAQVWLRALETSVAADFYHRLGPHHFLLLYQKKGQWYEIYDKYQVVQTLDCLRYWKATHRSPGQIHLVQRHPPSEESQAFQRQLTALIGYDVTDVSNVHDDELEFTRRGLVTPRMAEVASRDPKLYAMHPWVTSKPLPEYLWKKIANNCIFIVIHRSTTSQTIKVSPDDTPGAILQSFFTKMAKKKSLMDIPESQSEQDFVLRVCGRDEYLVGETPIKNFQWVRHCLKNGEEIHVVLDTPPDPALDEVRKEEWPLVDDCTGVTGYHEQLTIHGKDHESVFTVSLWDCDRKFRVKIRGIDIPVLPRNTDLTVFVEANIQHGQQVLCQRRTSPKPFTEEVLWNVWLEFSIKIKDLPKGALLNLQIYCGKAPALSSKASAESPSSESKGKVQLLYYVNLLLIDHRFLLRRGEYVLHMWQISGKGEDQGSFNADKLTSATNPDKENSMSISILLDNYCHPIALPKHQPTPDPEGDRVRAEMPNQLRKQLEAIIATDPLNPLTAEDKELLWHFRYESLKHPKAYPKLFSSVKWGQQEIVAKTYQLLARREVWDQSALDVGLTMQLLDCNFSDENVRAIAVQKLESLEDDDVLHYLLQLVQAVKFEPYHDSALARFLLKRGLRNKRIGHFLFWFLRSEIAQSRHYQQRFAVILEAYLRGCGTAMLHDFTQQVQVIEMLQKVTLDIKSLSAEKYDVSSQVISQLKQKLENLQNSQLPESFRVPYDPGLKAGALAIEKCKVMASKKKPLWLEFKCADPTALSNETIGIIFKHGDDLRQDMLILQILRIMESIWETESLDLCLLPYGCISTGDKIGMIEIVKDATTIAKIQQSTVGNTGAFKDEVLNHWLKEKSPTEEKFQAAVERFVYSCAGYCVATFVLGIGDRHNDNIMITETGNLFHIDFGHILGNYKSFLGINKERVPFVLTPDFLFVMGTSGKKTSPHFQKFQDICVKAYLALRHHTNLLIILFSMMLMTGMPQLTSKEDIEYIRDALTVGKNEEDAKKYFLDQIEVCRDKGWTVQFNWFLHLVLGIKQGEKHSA
Assay: Inhibition of phosphatidylinositol 3-kinase gamma (PI3K γ), pAkt Western blotting in C5a-stimulated RAW264.7 macrophages
Details: ATP=10 uM, sample concentration=100 nM
pIC50: −log10 of the molar value.

Examples from the recorded data:
INSERT INTO results (molecule, target_of_assay, value_reported) VALUES
  ('C[C@H](Nc1nc(N)nc2[nH]ccc(=O)c12)c1cc2cccc(Cl)c2c(=O)n1-c1ccccc1 [Example 15]', 'PI3 Kinase (p120γ) (h) (Homo sapiens, UniProt P48736)', '6.30 to 8.00'),
  ('C[C@H](Nc1ncnc2[nH]ccc(=O)c12)c1nc2ccc(F)cc2cc1-c1ccccn1 [Example 7-1]', 'PI3 Kinase (p120γ) (h) (Homo sapiens, UniProt P48736)', '< 6.30');

Ask: What value of pIC50 has been reported for the following molecule? CC(Nc1ncnc2[nH]ccc(=O)c12)c1nc2ccc(F)cc2cc1-c1ccccn1 (stereo not drawn) [Example 7]
Reply: < 6.30
